I'd appreciate it if you could supply Cytostatic Activity values for the items below.
Test system: RAW 264.7 cells
assay method text: MTT assay, cytostatic activity on RAW 264.7 cells
Format: cell-based, mouse
test settings: RAW 264.7, at 72 h, n.a. = no cytostatic activity observed at the concentrations tested

Known Cytostatic Activity results, listed for orientation:
molecule	observed property	value reported
C[C@@]12O[C@]1(C)CC[C@@]2(C)c1ccc(CO)cc1 (relative stereo) [Compound 10]	Cytostatic Activity	> 50 µM
CC1CCC(O)C2=CCC3C(C3(C)C)C21C (stereo not drawn) [Compound 20, aristol-9-en-1α-ol]	Cytostatic Activity	> 50 µM
CCCCCCCCCCCC/C=C(\Cl)C=O [Compound 22, (2Z)-2-chloro-pentadec-2-enal]	Cytostatic Activity	> 3.12 µM

Moving on to another molecule below.
Per the records, this molecule ( C=C1CCC(Br)C(C)(C)C12CCC1(C)C(Br)CCC(C)(O)C1C2 (stereo not shown) [Compound 21, kahukuene B] ) has Cytostatic Activity equal to > 25 µM
